Field: surviving fraction. Provide a value for each of the molecules that follow.
System: PC-3 cells
measurement.notes: Chemo-sensitivity by MTS assay, PC-3 cells
Format: cell-based, human
experimental.setup: PC-3, Ad.Egr-TNF.11D and chemotherapy 24 hrs, higher concentration: cisplatin 460 μM, doxorubicin 300 μM, 5-FU 200 mM, taxol 140 μM
Protocol: Chemo-sensitivity of PC-3 and PROb cells as determined by MTS assay. PC-3 and PROb cells were plated at a density of 10^5 cells/100 μl medium in 96-well tissue culture plates and incubated overnight. […] After incubation, 200 μl of complete media, with or without chemotherapeutic agents, was added. […] Absorbance was measured at 490-650 nm.
Where a name gives a salt, the structure may show the parent alone.
Numbers only, in %.

Reference set (3 entries):
{"molecule": "O=c1[nH]cc(F)c(=O)[nH]1", "measured.target": "PC-3 cells", "numeric.value": 20}
{"molecule": "N.N.[Cl][Pt][Cl] [cisplatin]", "measured.target": "PC-3 cells", "numeric.value": 60}
{"molecule": "COc1cccc2c1C(=O)c1c(O)c3c(c(O)c1C2=O)C[C@@](O)(C(=O)CO)C[C@@H]3O[C@H]1C[C@H](N)[C@H](O)[C@H](C)O1 [doxorubicin, doxorubicin hydrochloride]", "measured.target": "PC-3 cells", "numeric.value": 30}

Now, please, on to the next molecule.
Observed surviving fraction, PC-3 cells, CC(=O)O[C@H]1C(=O)[C@@]2(C)[C@H]([C@H](OC(=O)c3ccccc3)[C@]3(O)C[C@H](OC(=O)[C@H](O)[C@@H](NC(=O)c4ccccc4)c4ccccc4)C(C)=C1C3(C)C)[C@]1(OC(C)=O)CO[C@@H]1C[C@@H]2O : 10

Where do the numbers come from? From patent US8034791B2.
